- ASSAY_TARGET: S-adenosylmethionine decarboxylase proenzyme (Homo sapiens, UniProt P17707)
- Sequence (P17707 1-67 limits assumed): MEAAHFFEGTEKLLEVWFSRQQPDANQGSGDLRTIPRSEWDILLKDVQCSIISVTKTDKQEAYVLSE
- Sequence (P17707 68-334 limits assumed): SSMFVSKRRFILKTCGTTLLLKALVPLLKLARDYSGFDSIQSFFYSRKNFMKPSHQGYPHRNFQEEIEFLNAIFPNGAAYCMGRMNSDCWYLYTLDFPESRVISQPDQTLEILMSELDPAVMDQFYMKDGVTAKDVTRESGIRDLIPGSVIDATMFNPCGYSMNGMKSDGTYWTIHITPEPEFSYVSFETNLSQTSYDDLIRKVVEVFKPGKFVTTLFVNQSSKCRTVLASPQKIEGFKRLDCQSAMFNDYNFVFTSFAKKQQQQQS
- EXPERIMENT_DESCRIPTION: Inhibition of recombinant human N-terminal His6-tagged AdoMetDC expressed in Escherichia coli BL21/DE3 cells at pH 7.2 by RapidFire-MS-based enzyme activity assay
pIC50: −log10 of the molar value.
Reported pIC50 values for a set of molecules

| GIVEN_SMILES | ASSAY_TARGET | pIC50 |
| --- | --- | --- |
| Nc1ccnc(Nc2cc(Cl)cc(Cl)c2)c1 | S-adenosylmethionine decarboxylase proenzyme (Homo sapiens, UniProt P17707) | < 3.74 |
| Cc1cc(Nc2cc(Cl)cc(-c3cncs3)c2)nc(N)n1 | S-adenosylmethionine decarboxylase proenzyme (Homo sapiens, UniProt P17707) | < 4.68 |
| Cc1cc(Nc2cc(C(C)(C)C)cc(C(C)(C)C)c2)nc(N)n1 | S-adenosylmethionine decarboxylase proenzyme (Homo sapiens, UniProt P17707) | < 4.20 |
| Cc1cc(Nc2cc(Cl)ccc2Cl)nc(N)n1 | S-adenosylmethionine decarboxylase proenzyme (Homo sapiens, UniProt P17707) | < 3.74 |

Reported pIC50 for `Cc1cc(Nc2cccc(F)c2)nc(N)n1` was < 3.74

Reported pIC50 for `Cc1cc(Nc2cc(Cl)cc(-c3ccc(C#N)cc3)c2)nc(N)n1` was < 5.15

Reported pIC50 for `Cc1cc(Nc2cc(Cl)c(F)c(Cl)c2F)nc(N)n1` was < 4.20

Reported pIC50 for `CCCCOc1cc(Br)cc(Nc2cc(C)nc(N)n2)c1` was < 3.74

Reported pIC50 for `CC(=O)c1ccc(-c2cc(Cl)cc(Nc3cc(C)nc(N)n3)c2)cc1` was < 4.68

Reported pIC50 for `Cc1cc(Nc2cc(Cl)cc(-c3ccc4ccccc4c3)c2)nc(N)n1` was < 3.74

Reported pIC50 for `Nc1nc2c(c(Nc3cc(Cl)cc(Cl)c3)n1)CCC2` was < 4.68

Reported pIC50 for `Cc1cc(Nc2cc(F)cc(Cl)c2)nc(N)n1` was < 3.74

// data source = ChEMBL document CHEMBL4033778
